# ASSAYED_TARGET: SpBzz1-D2
# TEST_DESCRIPTION: SPOT peptide array binding signal intensity (averaged, normalized) (arbitrary units (background-subtracted, floor 0; scale differs between SH3 domains)); higher = stronger binding of the SH3 domain to the peptide
OBSERVATION_TYPE: SPOT peptide array binding signal intensity

Please review the following examples before continuing.
INSERT INTO assay_data (binder, value_measured) VALUES
  ('TSIEIPKRSPLRFTS', '≤ 0'),
  ('LKRITSPPLPPRADS', 1.75),
  ('QFDLKMPSKPIHNLK', '≤ 0'),
  ('RSRRSSFAYPQQVAI', '≤ 0'),
  ('TSFKGRPKPPKTLKH', '≤ 0'),
  ('LKHGWKPLRPIKLIS', 0.5);

Now for a further binder.
Returns the measured SPOT peptide array binding signal intensity for the input binder. Input: GLRRARYKFPGQQKI
0.5
